- experiment.description: Displacement of [3H]discodermolide from microtubule assessed as bound radioligand level at 20 uM treated before radioligand addition by competitive binding assay
endpoint: Activity (%)

[[record]]
compound = "CC1=C[C@H]2[C@@H](O)[C@H](C)[C@@H](O)[C@@H]2[C@H]2[C@@H]3C4=C5O[C@](C)(CC[C@@H](OC4=O)[C@H]5C)[C@@H]3C[C@@H]12"
endpoint = "Activity"
test_value = 19

[[record]]
compound = "C=C/C=C\\[C@H](C)[C@H](OC(N)=O)[C@@H](C)[C@H](O)[C@@H](C)C/C(C)=C\\[C@H](C)[C@@H](O)[C@@H](C)/C=C\\[C@@H](O)C[C@@H]1OC(=O)[C@H](C)[C@@H](O)[C@H]1C [DISERMOLIDE]"
endpoint = "Activity"
test_value = 31

[[record]]
compound = "C/C(=C\\c1csc(C)n1)[C@@H]1C[C@@H]2O[C@]2(C)CCC[C@H](C)[C@H](O)[C@@H](C)C(=O)C(C)(C)[C@@H](O)CC(=O)O1"
endpoint = "Activity"
test_value = 79

[[record]]
compound = "C/C(=C\\c1csc(C)n1)[C@@H]1C[C@@H]2O[C@@H]2CCC[C@H](C)[C@H](O)[C@@H](C)C(=O)C(C)(C)[C@@H](O)CC(=O)O1"
endpoint = "Activity"
test_value = 96

